Biological target: T1, human plasma-derived FX (Haematologic Technologies Inc, USA) (human, UniProt P00742 41-179; P00742 183-488)
T1 construct: also called coagulation Factor X; human FX
T1 sequence (P00742 41-179, chain 1 of 2): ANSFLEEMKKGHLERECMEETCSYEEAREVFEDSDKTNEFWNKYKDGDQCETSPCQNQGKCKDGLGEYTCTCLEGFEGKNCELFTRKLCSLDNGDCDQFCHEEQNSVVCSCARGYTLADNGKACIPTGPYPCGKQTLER
T1 sequence (P00742 183-488, chain 2 of 2): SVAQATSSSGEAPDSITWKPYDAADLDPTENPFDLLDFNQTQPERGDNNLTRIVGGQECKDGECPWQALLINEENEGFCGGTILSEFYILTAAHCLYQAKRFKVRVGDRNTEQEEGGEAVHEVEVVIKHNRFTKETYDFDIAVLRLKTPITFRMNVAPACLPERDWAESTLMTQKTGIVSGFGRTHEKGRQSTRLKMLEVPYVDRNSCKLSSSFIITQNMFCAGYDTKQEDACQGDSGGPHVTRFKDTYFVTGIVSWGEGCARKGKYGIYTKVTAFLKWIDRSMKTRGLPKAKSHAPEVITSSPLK
Assay: SPR, FX captured on immobilised anti-GLA-FX antibody, steady state analysis, 25 C
Description: Briefly, an anti-GLA-FX, prepared recombinantly as described above, was immobilised on a CM4 sensor chip or a Xantec HLC200M using standard amine coupling chemistry at pH 5. […] The binding data were collected at 25° C. and were analysed according to a 1:1 model using BiaEvaluation 4.1 supplied by the manufacturer (Biacore AB, Uppsala or Bruker Analyser). Therefore, the reported KD values are determined based on steady state analysis.
pKd: −log10 of the molar value.
# binarize pKd: threshold 7 inclusive, high side 1 (yes), low side 0 (no)

Reference set (3 entries):
Cmpd #10 (anti-FX/anti-FIX(a) VHH polypeptide derivative) (bispecific antibody, C16 diacid protractor (P2) via linker LP1 on Cys4 and Cys6 in C-term extension (SEQ ID NO: 9), Single chain of two VHH: anti-FX (N-terminal) and anti-FIX(a) (C-terminal)) DVQLVESGGGVVQPGGSLQLSCAASGGTKRRLAMGWFRQAPGQEREWVAAISRRGGSTNYADSVKGRFTISRDNSKNTVYLQMDSLRPEDTALYYCAADDSVGDGYLDYWGQGTLVTVSSGQAPGQEVQLVESGGGVVQPGGSLRLSCAASGRTFNIYTMSWFRQAPGQEREFVAGLRWTDSSTEYADSVKGRFTISRDNSKNTVYLQMNSLRPEDTALYYCAADRSFLFAQALGATKNYEYWGQGTLVTVSSGQACPC: 0 (no)
Cmpd #5 (anti-FX/anti-FIX(a) VHH polypeptide derivative) (bispecific antibody, C18 diacid protractor (P3) via linker LP1 on Cys6 in C-term extension (SEQ ID NO: 7), Single chain of two VHH: anti-FX (N-terminal) and anti-FIX(a) (C-terminal)) DVQLVESGGGVVQPGGSLQLSCAASGRTHSRYAMGWFRQAPGQEREFVAAISRRGGSTNYADSVKGRFTISRDNSKNTVYLQMDSLRPEDTALYYCAADDSSGDGYLDYWGQGTLVTVSSGGGGSGGGSEVQLVESGGGVVQPGGSLQLSCAASGRTFNIYTMSWFRQAPGQEREFVAGLRWTDSSTEYADSVKGRFTISRDNSKNTVYLQMDSLRPEDTALYYCAADRSFLFAQALGATKNYEYWGQGTLVTVSSGGGGSCHHHHHH: 0 (no)
Cmpd #12 (anti-FX/anti-FIX(a) VHH polypeptide derivative) (bispecific antibody, C16 diacid protractor (P2) via linker LP1 on Cys4 and Cys6 in C-term extension (SEQ ID NO: 9), Single chain of two VHH: anti-FX (N-terminal) and anti-FIX(a) (C-terminal); also called VHH1.12-L1-2-VHH2.12-E) DVQLVESGGGVVQPGGSLQLSCAASGGTKRRLAMGWFRQAPGQEREFVAAISRRGGSTNYADSVKGRFTISRDNSKNTVYLDMDDLRPEDTALYYCAADDSVGDGYLDYWGQGTLVTVSSGQAPGQEVQLVESGGGVVQPGGSLQLSCAASGRTFNIYTMSWFRQDPGQEREFVAGLRWTDSSTEYADSVKGRFTISRDNSKNTVYLQMDSLRPEDTALYYCAADRSFLFAQALGATKNYEYWGQGTLVTVSSGQACPC: 1 (yes)

Below: the item to evaluate.
Is reported pKd greater than or equal to 7 here: Cmpd #4 (anti-FX/anti-FIX(a) VHH polypeptide derivative) (bispecific antibody, C18 diacid protractor (P3) via linker LP1 on Cys6 in C-term extension (SEQ ID NO: 7), Single chain of two VHH: anti-FX (N-terminal) and anti-FIX(a) (C-terminal)) DVQLVESGGGVVQPGGSLRLSCAASGRTHSRYAMGWFRQAPGKEREFVAAISRRGGSTNYADSVKGRFTISRDNSKNTVYLQMNSLRPEDTALYYCAADDSSGDGYLDYWGQGTLVTVSSGGGGSGGGSEVQLVESGGGVVQPGGSLRLSCAASGRTFNIYTMSWFRQAPGKEREFVAGLRWTDSSTEYADSVKGRFTISRDNSKNTVYLQMNSLRPEDTALYYCAADRSFLFAQALGATKNYEYWGQGTLVTVSSGGGGSCHHHHHH 0 (no)
